target: T1, AFP158/HLA-A*02:01 complex (human); assay: SPR, scFv captured, pMHC in flow;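 also: complex injected at several concentrations over crude scFv, association then running-buffer dissociation, KD estimated from kinetic on- and off-rate constants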
T1 construct: flowed over the chip in SPR; also called AFP158 pro
What pKd was measured for each of the following?
Give bare numbers, as −log10 of the molar value.

Use these answered entries as a reference point.
{"binder": "HP58E (scFv, AS170036 VL1VH1 scFv mutein) scFv: QSALTQPRSVSGSPGQSVTISCAGTSSDVGSENYVSWYQQHPGKAPKLMIYQVNKRASGVPDRFSGSKSGNTASLTISGLQAEDEADYYCASYRSSDHNIVFGGGTKLTVLGGGGSGGGGSGGGGSEVQLVESGGGLVQPGGSLRLSCAASGFTFSSYAMSWVRQAPGKGLEWVSTINSGTGSEYYADSVKGRFTISRDNSKNTLYLQMNSLRAEDTAVYYCAKNFFDGSWFLGPPAMDYWGQGTLVTVSSHHHHHH", "pKd": 6.22}
{"binder": "HG108E (scFv, AS170036 VL1VH1 scFv mutein; also called AS170036 VL1VH1-VHG108E) scFv: QSALTQPRSVSGSPGQSVTISCAGTSSDVGSENYVSWYQQHPGKAPKLMIYQVNKRASGVPDRFSGSKSGNTASLTISGLQAEDEADYYCASYRSSDHNIVFGGGTKLTVLGGGGSGGGGSGGGGSEVQLVESGGGLVQPGGSLRLSCAASGFTFSSYAMSWVRQAPGKGLEWVSTINSGTGSPYYADSVKGRFTISRDNSKNTLYLQMNSLRAEDTAVYYCAKNFFDGSWFLEPPAMDYWGQGTLVTVSSHHHHHH", "pKd": 7.25}
{"binder": "HG56Q (scFv, AS170036 VL1VH1 scFv mutein) scFv: QSALTQPRSVSGSPGQSVTISCAGTSSDVGSENYVSWYQQHPGKAPKLMIYQVNKRASGVPDRFSGSKSGNTASLTISGLQAEDEADYYCASYRSSDHNIVFGGGTKLTVLGGGGSGGGGSGGGGSEVQLVESGGGLVQPGGSLRLSCAASGFTFSSYAMSWVRQAPGKGLEWVSTINSGTQSPYYADSVKGRFTISRDNSKNTLYLQMNSLRAEDTAVYYCAKNFFDGSWFLGPPAMDYWGQGTLVTVSSHHHHHH", "pKd": 6.62}
{"binder": "HL107N (scFv, AS170036 VL1VH1 scFv mutein) scFv: QSALTQPRSVSGSPGQSVTISCAGTSSDVGSENYVSWYQQHPGKAPKLMIYQVNKRASGVPDRFSGSKSGNTASLTISGLQAEDEADYYCASYRSSDHNIVFGGGTKLTVLGGGGSGGGGSGGGGSEVQLVESGGGLVQPGGSLRLSCAASGFTFSSYAMSWVRQAPGKGLEWVSTINSGTGSPYYADSVKGRFTISRDNSKNTLYLQMNSLRAEDTAVYYCAKNFFDGSWFNGPPAMDYWGQGTLVTVSSHHHHHH", "pKd": 6.28}
{"binder": "HG56A (scFv, AS170036 VL1VH1 scFv mutein) scFv: QSALTQPRSVSGSPGQSVTISCAGTSSDVGSENYVSWYQQHPGKAPKLMIYQVNKRASGVPDRFSGSKSGNTASLTISGLQAEDEADYYCASYRSSDHNIVFGGGTKLTVLGGGGSGGGGSGGGGSEVQLVESGGGLVQPGGSLRLSCAASGFTFSSYAMSWVRQAPGKGLEWVSTINSGTASPYYADSVKGRFTISRDNSKNTLYLQMNSLRAEDTAVYYCAKNFFDGSWFLGPPAMDYWGQGTLVTVSSHHHHHH", "pKd": 6.80}

Could I get pKd for every one of these entries?
1. HG56M (scFv, AS170036 VL1VH1 scFv mutein) scFv: QSALTQPRSVSGSPGQSVTISCAGTSSDVGSENYVSWYQQHPGKAPKLMIYQVNKRASGVPDRFSGSKSGNTASLTISGLQAEDEADYYCASYRSSDHNIVFGGGTKLTVLGGGGSGGGGSGGGGSEVQLVESGGGLVQPGGSLRLSCAASGFTFSSYAMSWVRQAPGKGLEWVSTINSGTMSPYYADSVKGRFTISRDNSKNTLYLQMNSLRAEDTAVYYCAKNFFDGSWFLGPPAMDYWGQGTLVTVSSHHHHHH
2. HG108Q (scFv, AS170036 VL1VH1 scFv mutein) scFv: QSALTQPRSVSGSPGQSVTISCAGTSSDVGSENYVSWYQQHPGKAPKLMIYQVNKRASGVPDRFSGSKSGNTASLTISGLQAEDEADYYCASYRSSDHNIVFGGGTKLTVLGGGGSGGGGSGGGGSEVQLVESGGGLVQPGGSLRLSCAASGFTFSSYAMSWVRQAPGKGLEWVSTINSGTGSPYYADSVKGRFTISRDNSKNTLYLQMNSLRAEDTAVYYCAKNFFDGSWFLQPPAMDYWGQGTLVTVSSHHHHHH
3. HS57Y (scFv, AS170036 VL1VH1 scFv mutein) scFv: QSALTQPRSVSGSPGQSVTISCAGTSSDVGSENYVSWYQQHPGKAPKLMIYQVNKRASGVPDRFSGSKSGNTASLTISGLQAEDEADYYCASYRSSDHNIVFGGGTKLTVLGGGGSGGGGSGGGGSEVQLVESGGGLVQPGGSLRLSCAASGFTFSSYAMSWVRQAPGKGLEWVSTINSGTGYPYYADSVKGRFTISRDNSKNTLYLQMNSLRAEDTAVYYCAKNFFDGSWFLGPPAMDYWGQGTLVTVSSHHHHHH
4. HG56K (scFv, AS170036 VL1VH1 scFv mutein) scFv: QSALTQPRSVSGSPGQSVTISCAGTSSDVGSENYVSWYQQHPGKAPKLMIYQVNKRASGVPDRFSGSKSGNTASLTISGLQAEDEADYYCASYRSSDHNIVFGGGTKLTVLGGGGSGGGGSGGGGSEVQLVESGGGLVQPGGSLRLSCAASGFTFSSYAMSWVRQAPGKGLEWVSTINSGTKSPYYADSVKGRFTISRDNSKNTLYLQMNSLRAEDTAVYYCAKNFFDGSWFLGPPAMDYWGQGTLVTVSSHHHHHH

Reply text:
1: 6.89; 2: 6.70; 3: 6.70; 4: 6.46

Sourced from patent US20240279318A1
